test: Cellular cytotoxic activity, mock-infected feline thymocytes, trypan blue exclusion staining
Assay type: cell-based
reported-conditions: cat, read-out: CC50 (50% cytotoxic concentration)
measure: CC50

> print(dat)
                                   compound  measure  test.result
1  CN1c2nc(c(O)c3ncccc23)C(=O)NCc2ccc(F)cc2C(=O)NCCCCCS1(=O)=O [Compound 6]     CC50      > 10 nM

----------
Test system: FIV strain Utrecht-113
test: Inhibitory activity on FIV replication wild type, CRFK cells (FIV p24 ELISA)
Format: cell-based
reported-conditions: Feline immunodeficiency virus, 144 h, FIV strain Utrecht-113, 6 days, read-out: EC50 (concentration required to reduce antigen production by 50%)
measure: EC50 (nM)

> print(dat)
                                smiles.text          assayed.target  measure  test.result
1  CN1c2nc(c(O)c3ncccc23)C(=O)NCc2ccc(F)cc2C(=O)NCCCCCS1(=O)=O  FIV strain Utrecht-113     EC50           20

----------
test: Cellular cytotoxic activity, mock-infected CRFK cells, MTT assay
Format: cell-based, feline
reported-conditions: cat, read-out: CC50 (50% cytotoxic concentration)
measure: CC50 at 6 days

> print(dat)
                                smiles.text  test.result
1  CN1c2nc(c(O)c3ncccc23)C(=O)NCc2ccc(F)cc2C(=O)NCCCCCS1(=O)=O      > 10 nM
